These measurements were taken from paper PMC9103351.

target-of-assay: recombinant human MAO-A (Homo sapiens)
Construct: purchased Sigma-Aldrich
Sequence (P21397 1-527): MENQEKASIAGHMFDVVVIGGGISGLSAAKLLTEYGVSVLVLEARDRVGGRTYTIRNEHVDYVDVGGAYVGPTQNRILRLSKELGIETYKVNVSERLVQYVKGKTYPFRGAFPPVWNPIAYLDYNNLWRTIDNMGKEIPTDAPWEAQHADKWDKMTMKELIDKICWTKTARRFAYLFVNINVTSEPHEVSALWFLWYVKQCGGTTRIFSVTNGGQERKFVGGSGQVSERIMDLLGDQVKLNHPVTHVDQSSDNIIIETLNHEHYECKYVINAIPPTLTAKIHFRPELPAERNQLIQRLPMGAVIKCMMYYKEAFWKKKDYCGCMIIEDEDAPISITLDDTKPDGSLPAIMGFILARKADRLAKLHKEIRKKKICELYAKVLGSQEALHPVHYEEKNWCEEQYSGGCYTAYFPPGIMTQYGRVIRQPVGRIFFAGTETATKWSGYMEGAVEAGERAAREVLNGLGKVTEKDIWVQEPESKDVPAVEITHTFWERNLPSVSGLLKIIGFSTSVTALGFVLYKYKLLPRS
assay-summary: Inhibitory activity on recombinant human MAO-A (kynuramine, fluorescence)
Format: biochemical
applied-conditions: selective index from Ki values (Ki = IC50/(1 + [S]/Km)); Si = Ki (MAO-B)/Ki (MAO-A)
reported-endpoint: Si MAO-A

>>> value("COc1c(O)cc2oc3cc(O)c(CC=C(C)C)c(O)c3c(=O)c2c1CC=C(C)C [Compound 3, α-mangostin]")
1.218
>>> value("COc1c(O)cc2oc3cc4c(c(O)c3c(=O)c2c1C/C=C(\\C)CCC=C(C)C)C=CC(C)(C)O4 [Compound 6, fuscaxanthone A]")
558.273
>>> value("COc1cc2c(=O)c3c(O)c(C/C=C(\\C)CCC=C(C)C)c(O)cc3oc2cc1O [Compound 2, cowaxanthone]")
0.307
